Each entry below carries its reported difference in activity during first hour.
Test system: Danio rerio larvae (5 dpf)
Assay: difference in activity during first hour vs DMSO (percentage points); higher = more activity than DMSO
Details: 10 µM; exposure time 6 h
Counter-ions that a name gives are not always drawn.

Solved entries (count: 3):
O=C(O)c1cc(/N=N/c2ccc(S(=O)(=O)Nc3ccccn3)cc2)ccc1O [Sulfasalazine] :: 12.9
O=C(O)CCCN1CCC(O[C@@H](c2ccc(Cl)cc2)c2ccccn2)CC1 [Bepotastine (besylate)] :: 0.00178
CNC(=O)c1ccccc1Sc1ccc2c(/C=C/c3ccccn3)n[nH]c2c1 [Axitinib] :: -1.06

Given the compound CC(=O)N(CC(O)CO)c1c(I)c(C(=O)NCC(O)CO)c(I)c(C(=O)NCC(O)CO)c1I (configuration not stated) [Iohexol] , what is its reported difference in activity during first hour?
5.28

Given the compound CCOC(=O)[C@H](CCc1ccccc1)N[C@H]1CCc2ccccc2N(CC(=O)O)C1=O [Benazepril (hydrochloride)] , what is its reported difference in activity during first hour?
-2.03

Given the compound CC(N)C12CC3CC(CC(C3)C1)C2 (configuration not stated) [Rimantadine (hydrochloride)] , what is its reported difference in activity during first hour?
-3.58

Given the compound CC1=C(CC(=O)O)c2cc(F)ccc2/C1=C\c1ccc([S+](C)[O-])cc1 (configuration not stated) [Sulindac] , what is its reported difference in activity during first hour?
10.8

Given the compound Clc1ccc(CSC(Cn2ccnc2)c2ccc(Cl)cc2Cl)cc1 (configuration not stated) [Sulconazole (nitrate)] , what is its reported difference in activity during first hour?
-17.2

Given the compound CCCCc1ncc(/C=C(\Cc2cccs2)C(=O)O)n1Cc1ccc(C(=O)O)cc1 [Eprosartan (mesylate)] , what is its reported difference in activity during first hour?
-8.19

Given the compound Clc1ccc(CO/N=C(\Cn2ccnc2)c2ccc(Cl)cc2Cl)c(Cl)c1 [Oxiconazole (nitrate)] , what is its reported difference in activity during first hour?
-22.9

Given the compound Fc1ccc([C@@H]2CCNC[C@H]2COc2ccc3c(c2)OCO3)cc1 [Paroxetine (hydrochloride)] , what is its reported difference in activity during first hour?
-22.3
